Numbers sourced from ChEMBL document CHEMBL1201862.

test system: SF-268; experiment: NCI tumour cell line growth inhibition, 48 h
Active and inactive are the calls of the source. No stated cut-off is given here; in the data, active = GI50 up to about 1.1 µM and inactive = higher.
Provide the recorded GI50 for the entries that follow.

Input line: Requested read-out GI50, target or system SF-268, entry N#CC1(C#N)C(=O)c2ccncc2C1=O
Output line: > 100 µM (inactive)

Input line: Another molecule to check: CCN(CC)CCCn1c(=O)c2ccccc2n2c3c(=O)n(C)c(=O)n(C)c3nc12
Output line: 5.9 µM (inactive)

Input line: Another molecule to check: CCN(CC)CCNC(=O)c1ccc(C)c(OCc2ccccc2)c1[N+](=O)[O-]
Output line: 63.2 µM (inactive)

Input line: Another molecule to check: COC(=O)C1=C(O)C(C(=O)OC)[C@@]2(O)[C@@H](C(=O)OC)C(c3ccc(OC(=O)/C(=C/c4ccc(Cl)cc4)c4ccc(Cl)cc4)cc3)C[C@@H]1[C@@H]2C(=O)OC (some centres undefined)
Output line: 99.3 µM (inactive)

Input line: Another molecule to check: COc1ccc(CCNC(=O)[C@H]2CCCC[C@@H]2CCO)cc1OC
Output line: > 100 µM (inactive)

Input line: Another molecule to check: Cc1ccc(NC(=O)c2cc3ccccc3c(/N=N\c3ccccc3O)c2O)c(C)c1
Output line: 0.687 µM (active)

Input line: Another molecule to check: NC(=O)NNC(=O)NC12CC3CC(CC(C3)C1)C2
Output line: > 100 µM (inactive)

Input line: Another molecule to check: O=C(CSc1nc(-c2ccccc2)c(-c2ccccc2)[nH]1)NNC(=S)Nc1ccccc1
Output line: > 100 µM (inactive)

Input line: Another molecule to check: COP(=O)(OC)/C(=C/c1cn(C(c2ccccc2)(c2ccccc2)c2ccccc2)cn1)NC=O
Output line: 14.5 µM (inactive)

---

test system: Malme-3M; experiment: NCI tumour cell line growth inhibition, 48 h
Calls of active or inactive are those of the source. No stated cut-off is given here; in the data, active = GI50 up to about 1.1 µM and inactive = higher.
PROPERTY NAME: GI50

Input line: Which GI50 reading was recorded for the compound CC(C)(C)/N=N/C(C)(C)N=C=O ?
Output line: > 100 µM (inactive)

Input line: Another compound to check: CC(C)CCCC(C)[C@H]1CCC2[C@@H]3CCC4Cc5nc6c(nc5C[C@]4(C)C3CC[C@@]21C)CC1CC[C@@H]2C(CC[C@@]3(C)C2CC[C@@H]3O)[C@@]1(C)C6 (stereo not given in full)
Output line: > 100 µM (inactive)

Input line: Another compound to check: CNn1c(-c2ccc(C)cc2)n[nH]c1=O
Output line: > 100 µM (inactive)

Input line: Another compound to check: CCOC(OC1=C(C#N)CCC1)C(C)[Se]c1ccccc1 (stereo not given)
Output line: 12.7 µM (inactive)

Input line: Another compound to check: CC(C)/C=N\N1C(N)=C(C#N)C(C#N)(C#N)C1C(C)C (stereo not given)
Output line: > 100 µM (inactive)

---

Provide the recorded GI50 for the entries that follow.
test system: KM12; assay: NCI tumour cell line growth inhibition, 48 h
Activity calls are given as the source filed them. Cut-off read from the data, not from the text of the source: active = GI50 up to about 1.1 µM and inactive = higher.

Input line: Which GI50 reading was recorded for the compound CC(C)(C)C1CC[C@H](O)[C@H]([C@H](O)CC2CC(=O)N(c3ccccc3)C(=O)C2)C1 (stereo partly specified) ?
Output line: > 100 µM (inactive)

Input line: Another compound to check: Cc1ccc2ccc(O)cc2c1
Output line: 28.4 µM (inactive)

Input line: Another compound to check: Nc1cccnc1NCC1(CO)CCCC1
Output line: > 100 µM (inactive)

Input line: Another compound to check: C=C(CN)CO[Si](C)(C)C(C)(C)C
Output line: > 100 µM (inactive)

Input line: Another compound to check: Cc1ccc(/N=N/c2c(O)ccc3ccccc23)c(C)c1
Output line: > 100 µM (inactive)

Input line: Another compound to check: COc1ccc2c(c1)O[C@@H]1C(O)Oc3cc(OC)c(OC)cc3[C@]1(O)C2=O (stereo partly specified)
Output line: 79.3 µM (inactive)

Input line: Another compound to check: Cn1c(=O)c2[nH]cnc2n(CC(=O)O)c1=O
Output line: > 100 µM (inactive)

Input line: Another compound to check: C=C1C(=O)OC2/C=C(/C)C(OC(C)=O)CC(O)/C(C)=C\C(OC(=O)/C(C)=C\C)C12 (stereo unspecified)
Output line: > 100 µM (inactive)

Input line: Another compound to check: COC(=O)C1=CCC2c3[nH]c4ccccc4c3CCN2C1 (stereo unspecified)
Output line: > 354 µM (inactive)

Input line: Another compound to check: O=C(NCCNCCNC(=O)C(F)(F)F)C(F)(F)F
Output line: > 100 µM (inactive)

Input line: Another compound to check: Cn1cc(NC(=O)c2cc(NC(=O)Nc3cc(C(=O)Nc4cc(C(=O)NCCC(=N)N)n(C)c4)n(C)c3)cn2C)cc1C(=O)NCCC(=N)N
Output line: 17 µM (inactive)

---

Provide the recorded GI50 for the entries that follow.
system: EKVX; assay: NCI tumour cell line growth inhibition, 48 h
Calls of active or inactive are those of the source. Rule as the data show it: active = GI50 up to about 1.1 µM and inactive = higher.

Input line: Which GI50 reading was recorded for the compound Brc1ccc(-c2nc(-c3ccc(Br)cc3)n(-c3ccccc3)n2)cc1 ?
Output line: 85.5 µM (inactive)

Input line: Another compound to check: O=C1Cc2c([nH]c3ccccc23)-c2cc(Br)ccc2N1
Output line: > 100 µM (inactive)

Input line: Another compound to check: CO/C=C(/C(=O)OC)c1ccccc1COc1cccc(C(F)(F)F)c1
Output line: 3.56 µM (inactive)

Input line: Another compound to check: C=C(C)[C@@H]1CCC2=C[C@H](CC(C)=CC3=CC(C)=C(O3)[C@@H]1OC)OC2=O
Output line: 59.2 µM (inactive)

Input line: Another compound to check: CC(C)CC12CC3CCC(CNC1=O)C32C (stereo unspecified)
Output line: > 100 µM (inactive)

Input line: Another compound to check: O=c1[nH]n(Cc2ccccc2Cl)c2ccc([N+](=O)[O-])cc12
Output line: 58.7 µM (inactive)

Input line: Another compound to check: O=C(CC(C(=O)c1cccs1)c1ccc2c(c1)OCO2)c1ccc(Br)cc1 (stereo unspecified)
Output line: > 100 µM (inactive)

Input line: Another compound to check: CC(C)(C)OC(=O)N[C@H]1CC(=O)c2ccccc2N(CC(=O)O)C1=O
Output line: > 100 µM (inactive)

Input line: Another compound to check: C=C(C)CCN[Si](c1ccccc1)(c1ccccc1)C(C)(C)C
Output line: 22.1 µM (inactive)

Input line: Another compound to check: Nc1cccnc1NCC1(CO)CCCC1
Output line: > 100 µM (inactive)

Input line: Another compound to check: Cc1cc(OC(=O)Nc2ccc(Cl)cc2)ccc1C(=S)Nc1ccccc1
Output line: 60.3 µM (inactive)

---

test system: A498; experiment: NCI tumour cell line growth inhibition, 48 h
Activity calls are given as the source filed them. No stated cut-off is given here; in the data, active = GI50 up to about 1.1 µM and inactive = higher.
Outcome field: choose from 1 for active, 0 for inactive

Input line: # outcome recorded in this test, key = O=C1NC2=C(CCCC/C2=N\O)C12CCCCC2
Output line: 0

Input line: Another compound to check: CC(CCCC1SCC2NC(=O)NC21)C(=O)O (stereo unspecified)
Output line: 0

Input line: Another compound to check: C=C1CC(C/C=C(\C)CC2CC(=C)C(=O)O2)OC1=O (stereo unspecified)
Output line: 0

Input line: Another compound to check: Cc1c2cnccc2nc2[nH]c3ccncc3c12
Output line: 0

Input line: Another compound to check: C[C@]12CCC(=O)C=C1CC[C@@H]1C2CC[C@]2(C)c3nn(-c4ccc(F)cc4)nc3CC12 (stereo partly specified)
Output line: 0

Input line: Another compound to check: CCCCN(CC)C(=O)C(=O)Cc1nc2ccc(C(=O)c3ccccc3)cc2nc1O
Output line: 0

Input line: Another compound to check: CN(C)c1ccc(/C=c2\sc3nnc(-c4ccco4)n3c2=O)cc1
Output line: 0

Input line: Another compound to check: O=C(Cn1c2ccc(Br)cc2c2nc3ccccc3nc21)NC1CCCCC1
Output line: 0

Input line: Another compound to check: CCOC(=O)C1=C(C(=O)OCC)C2(c3ccccc3)N(O1)c1ccccc1C2(C)C (stereo unspecified)
Output line: 0

Input line: Another compound to check: COc1ccc(C(=O)N/N=C2\C(=O)c3c(C)cc(C)cc3CC2(C)C)cc1
Output line: 0

Input line: Another compound to check: COc1cc(C2c3cc4c(cc3OC(N3CCCC3)C2C)OCO4)cc(OC)c1OC (stereo unspecified)
Output line: 1

Input line: Another compound to check: CNC(=O)OCc1c(COC(=O)NC)c(-c2ccc(Cl)c(Cl)c2)n2c1SCC2
Output line: 1

Input line: Another compound to check: Cn1c(=O)c2[nH]cnc2n(CC(=O)O)c1=O
Output line: 0

Input line: Another compound to check: C=C(CN)CO[Si](C)(C)C(C)(C)C
Output line: 0

Input line: Another compound to check: Cc1c(C)c(C)c(-n2c(=O)n(C)c(=O)n2C(C)(C)C)c(C)c1C
Output line: 0

Input line: Another compound to check: Cc1nc(-n2nc(-c3ccccc3)cc2-c2ccccc2)sc1C(/C=C\c1ccc([N+](=O)[O-])cc1)=N/NC(=S)NN
Output line: 0

Input line: Another compound to check: COc1ccc2c(c1)O[C@@H]1C(O)Oc3cc(OC)c(OC)cc3[C@]1(O)C2=O (stereo partly specified)
Output line: 0

Input line: Another compound to check: CC(=O)OCC1OC(OCCCCCCO)C(OC(C)=O)C(OC(C)=O)C1OC(C)=O (stereo unspecified)
Output line: 0

Input line: Another compound to check: c1ccc(SC2CCSc3ccccc3C2Sc2ccccc2)cc1 (stereo unspecified)
Output line: 0

Input line: Another compound to check: COC(=O)CN1Cc2cc(C)cc(c2O)CN(CC(=O)OC)Cc2cc(C)cc(c2O)CN(CC(=O)OC)Cc2cc(C)cc(c2O)C1
Output line: 0

Input line: Another compound to check: CN/N=C(\C)C(CN(C)C)C(c1ccccc1)c1c(O)c2ccccc2oc1=O (stereo unspecified)
Output line: 0
